Each recorded value in this set is attributed to patent US5968910A.

Tested on: HIV-1/V(0.5) 103-Asn
assay info: Sensitivity of mutant HIV-1 strain in CEM cell cultures
Assay type: cell-based
test context: Human immunodeficiency virus 1, CCRF-CEM; Table 5; read-out: EC50
property measured: EC50

Below, 6 molecules whose answers are already recorded.
> print(dat)
                                   molecule  property.measured  experimental.result
1  Cc1occc1C(=S)Nc1ccc(Cl)c(C=NOC(C)(C)C)c1 [Compound I]               EC50           0.73 µg/mL
2  O=C(OC1CCCCC1)c1cc(NC(=S)c2ccsc2)ccc1Cl [Compound V]               EC50            ≥ 5 µg/mL
3  Cc1occc1C(=S)Nc1ccc(Cl)c(C(=O)OC2CCCC2)c1 [Compound IV]               EC50           0.65 µg/mL
4  Cc1occc1C(=S)Nc1ccc(Cl)c(C(=O)OC2CCCCC2)c1 [Compound III]               EC50           0.85 µg/mL
5  CCc1cc(NCc2nc3c(Cl)ccc(Cl)c3o2)c(O)nc1C [Pyridinone L-697,661, reference compound]               EC50           0.55 µg/mL
6  Cc1occc1C(=S)Nc1ccc(Cl)c(C(=O)OCC(C)C)c1 [Compound II]               EC50            0.8 µg/mL

Tell us which EC50 value is on record for Nc1ccn([C@@H]2CS[C@H](CO)O2)c(=O)n1 [Compound 3TC, (-)-2'-deoxy-3'-thiacytidine]
0.04 µg/mL

Tell us which EC50 value is on record for CC(C)=CCN1Cc2cc(Cl)cc3[nH]c(=S)n(c23)C[C@@H]1C [TIBO R82913, reference compound]
5 µg/mL

====

Tested on: HIV-1(IIIB)
assay info: Knock-out concentrations: breakthrough of HIV-1(IIIB)-induced cytopathicity in CEM cell cultures
Format: cell-based
test context: tested at 0.1, 0.5 and 2.5 μg/ml, 35 days
property measured: concentration at which virus emerged (virus breakthrough) (µg/mL)
Just the number in µg/mL, nothing appended.

> print(dat)
                              record.smiles  test.target  experimental.result
1  Cc1occc1C(=S)Nc1ccc(Cl)c(C(=O)OCC(C)C)c1  HIV-1(IIIB)                  0.1
2  Cc1occc1C(=S)Nc1ccc(Cl)c(C(=O)OC2CCCC2)c1  HIV-1(IIIB)                  0.1
3  Cc1occc1C(=S)Nc1ccc(Cl)c(C(=O)OC2CCCCC2)c1  HIV-1(IIIB)                  0.1

// fetch concentration at which virus emerged (virus breakthrough); item: Cc1occc1C(=S)Nc1ccc(Cl)c(C=NOC(C)(C)C)c1 ; system: HIV-1(IIIB)
0.1

// fetch concentration at which virus emerged (virus breakthrough); item: O=C(OC1CCCCC1)c1cc(NC(=S)c2ccsc2)ccc1Cl ; system: HIV-1(IIIB)
0.5

====

test target: HIV-1 RT (WT) (Human immunodeficiency virus type 1 group M subtype B, UniProt P03366)
assay info: biochemical
test context: IC50, anti-HIV-1 RT (WT) activity
property measured: IC50 (nM)
Just the number in nM, nothing appended.

> print(dat)
                                   molecule                               test.target  experimental.result
1  CC(C)=CCN1Cc2cc(Cl)cc3[nH]c(=S)n(c23)C[C@@H]1C [TIBO R82913, reference compound]  HIV-1 RT (WT) (Human immunodeficiency virus type 1 group M subtype B, UniProt P03366)                 2050
2  CCc1cc(NCc2nc3c(Cl)ccc(Cl)c3o2)c(O)nc1C [Pyridinone L-697,661, reference compound]  HIV-1 RT (WT) (Human immunodeficiency virus type 1 group M subtype B, UniProt P03366)                 1080

Tell us which IC50 value is on record for Cc1cn([C@@H]2O[C@H](CO[Si](C)(C)C(C)(C)C)[C@@]3(OS(=O)(=O)C=C3N)[C@H]2O[Si](C)(C)C(C)(C)C)c(=O)n(C)c1=O [TSAO-m^3 T]
4600

====

Listing of entries alongside the reported activity at 0.5 µg/mL.
Test system: HIV-1(IIIB)
assay info: Knock-out concentrations: breakthrough of HIV-1(IIIB)-induced cytopathicity in CEM cell cultures
Format: cell-based
test context: Human immunodeficiency virus 1, IIIB, CCRF-CEM, 1008 h; 0.5 μg/ml, day 42 post infection, compound absent from day 35; read-out: HIV-1-induced cytopathicity in cell culture
Just the number in %, nothing appended.

> print(dat)
                                   compound  measurement.unit  experimental.result
1  Cc1occc1C(=S)Nc1ccc(Cl)c(C=NOC(C)(C)C)c1                 %                    0
2  Cc1occc1C(=S)Nc1ccc(Cl)c(C(=O)OC2CCCC2)c1                 %                    0
3   O=C(OC1CCCCC1)c1cc(NC(=S)c2ccsc2)ccc1Cl                 %                  100

Tell us which activity at 0.5 µg/mL value is on record for Cc1occc1C(=S)Nc1ccc(Cl)c(C(=O)OCC(C)C)c1
0

Tell us which activity at 0.5 µg/mL value is on record for Cc1occc1C(=S)Nc1ccc(Cl)c(C(=O)OC2CCCCC2)c1
0

Tell us which activity at 0.5 µg/mL value is on record for CC(C)Nc1cccnc1N1CCN(C(=O)c2cc3ccccc3[nH]2)CC1 [BHAP U88204, reference compound]
100

====

Tested on: HIV-1/TSAO-m^3 T (138-Lys)
assay info: Sensitivity of mutant HIV-1 strain in CEM cell cultures
Type: cell-based
test context: Human immunodeficiency virus 1, CCRF-CEM; CEM cells, Table 1; read-out: 50% Effective Concentration
Procedure: CEM cells were suspended at 250,000 cells per ml of culture medium and infected with wild-type HIV-I(IIIB) or mutant HIV-1 strains at 100 50% cell culture infective doses per ml. Then 100 μl of the infected cell suspensions was added to 200-μl microtiter plate wells containing 100 μl of an appropriate dilution of the test compounds. After 4 days incubation at 37° C., the cell cultures were examined for syncytium formation.
property measured: EC50 (µg/mL)
Just the number in µg/mL, nothing appended.

Below, 3 compounds whose answers are already recorded.
> print(dat)
                                   compound                 test.target  property.measured  experimental.result
1  Cc1occc1C(=S)Nc1ccc(Cl)c(C(=O)OC2CCCC2)c1 [Compound IV]  HIV-1/TSAO-m^3 T (138-Lys)               EC50                0.035
2  O=C(OC1CCCCC1)c1cc(NC(=S)c2ccsc2)ccc1Cl [Compound V]  HIV-1/TSAO-m^3 T (138-Lys)               EC50                0.075
3  Cc1occc1C(=S)Nc1ccc(Cl)c(C(=O)OC2CCCCC2)c1 [Compound III]  HIV-1/TSAO-m^3 T (138-Lys)               EC50                0.035

Tell us which EC50 value is on record for Cc1occc1C(=S)Nc1ccc(Cl)c(C(=O)OCC(C)C)c1 [Compound II]
0.06

====

Listing of entries alongside the reported activity at 0.5 µg/mL.
Tested on: HIV-1(IIIB)
assay info: Knock-out concentrations: breakthrough of HIV-1(IIIB)-induced cytopathicity in CEM cell cultures
Type: cell-based
test context: Human immunodeficiency virus 1, IIIB, CCRF-CEM, 1176 h; 0.5 μg/ml, day 49 post infection, compound absent from day 35; read-out: HIV-1-induced cytopathicity in cell culture

Below, 2 compounds whose answers are already recorded.
> print(dat)
                                   compound      property.measured  experimental.result
1  Cc1occc1C(=S)Nc1ccc(Cl)c(C(=O)OCC(C)C)c1  activity at 0.5 µg/mL                   0%
2  Cc1occc1C(=S)Nc1ccc(Cl)c(C(=O)OC2CCCC2)c1  activity at 0.5 µg/mL                   0%

Tell us which activity at 0.5 µg/mL value is on record for Cc1occc1C(=S)Nc1ccc(Cl)c(C(=O)OC2CCCCC2)c1
0%

Tell us which activity at 0.5 µg/mL value is on record for O=C(OC1CCCCC1)c1cc(NC(=S)c2ccsc2)ccc1Cl
100%

Tell us which activity at 0.5 µg/mL value is on record for Cc1occc1C(=S)Nc1ccc(Cl)c(C=NOC(C)(C)C)c1
0%

Tell us which activity at 0.5 µg/mL value is on record for CC(C)Nc1cccnc1N1CCN(C(=O)c2cc3ccccc3[nH]2)CC1 [BHAP U88204, reference compound]
100%
